Test: KARI assay of purified S. exigua KARI and variants with NADH (Examples 6-9)
Type: biochemical
Parameter Measured: kcat NADH (s⁻¹)
Dear colleague, please return just the value in s⁻¹, with no unit written.

Se1_KARI^1AA10: S. exigua KARI variant S61C, S63D, I95T (protein, UniProt D0WGK0 1-342, looked up, variant S61C S63D I95T) Ketol-acid reductoisomerase …: MSVKTKEKEMAVTILYEQDVDPKVIQGLKVGIIGYGSQGHAHALNLMDSGVDVRVGLREGCSDWKTAEEAGLKVTDMDTAAEEADVIMVLVPDETQPKVYQEHIAAHLKAGNTLAFAHGFNIHYGYIVPPEDVNVIMCAPKGPGHIVRRQFTEGSGVPDLACVQQDATGNAWDIVLSYCWGVGGARSGIIKATFAEETEEDLFGEQAVLCGGLVELVKAGFETLTEAGYPPELAYFECYHEMKMIVDLMYESGIHFMNYSISNTAEYGEYYAGPKVINEQSREAMKEILKRIQDGSFAQEFVDDCNNGHKRLLEQREAINTHPIETTGAQIRSMFSWIKKED = 0.8

Prompt: Determine its reported kcat NADH: Se1_KARI^1H1: S. exigua KARI variant R58P, S61C (protein, UniProt D0WGK0 1-342, looked up, variant R58P S61C) Ketol-acid reductoisomerase …: MSVKTKEKEMAVTILYEQDVDPKVIQGLKVGIIGYGSQGHAHALNLMDSGVDVRVGLPEGCSSWKTAEEAGLKVTDMDTAAEEADVIMVLVPDEIQPKVYQEHIAAHLKAGNTLAFAHGFNIHYGYIVPPEDVNVIMCAPKGPGHIVRRQFTEGSGVPDLACVQQDATGNAWDIVLSYCWGVGGARSGIIKATFAEETEEDLFGEQAVLCGGLVELVKAGFETLTEAGYPPELAYFECYHEMKMIVDLMYESGIHFMNYSISNTAEYGEYYAGPKVINEQSREAMKEILKRIQDGSFAQEFVDDCNNGHKRLLEQREAINTHPIETTGAQIRSMFSWIKKED
Completion: 0.50

Values were extracted from patent US20140295512A1.
